All figures here come from patent US20180346518A1.

Assay: in vivo
Design: species or system Holstein cows
Settings: female, Holstein, bovine, 150 mg, AUC0-12 h
Numbered stars: 1 amine (or outer) side, 2 acyl side, 3 side chain; on linkers, the order of the positions; unused ones are H or OH. Bridge positions count the residues as written; N and C are the ends. Square brackets hold non-standard residues; d marks the D form. Peptide text beside a SMILES is read from it. Phe(3R-OH) = O=C([C@@H](N[*:1])[C@H](O[*:3])c1ccccc1)[*:2]; Asn(3S-OH) = NC(=O)[C@@H](O)[C@H](N)C(=O)O; Leu(3R-OH) = CC(C)[C@@H](O)[C@H](N)C(=O)O; aThr = C[C@H](O)[C@H](N)C(=O)O
Value Kind: AUC(0-t)

Req: Look at this compound and give its reported AUC(0-t). CC[C@H](C)[C@@H]1NC(=O)[C@@H](CCCNC(=N)N)NC(=O)[C@H](CC(C)C)NC(=O)[C@H]([C@H](O)C(C)C)NC(=O)[C@@H](NC(=O)[C@H](CC(C)C)NC(=O)[C@H](N)CC(C)C)[C@@H](c2ccccc2)OC(=O)[C@H](CO)NC(=O)[C@H]([C@H](O)C(N)=O)NC(=O)CNC(=O)[C@H]([C@H](C)O)NC1=O [lysobactin] (H-[dL]L[Phe(3R-OH)][Leu(3R-OH)]L[dR]I[aThr]G[Asn(3S-OH)]S; ester 3-C)
Resp: 1870 µg·h/mL
